test: Stability to adenosine deaminase (residual percentage by HPLC); type: in vitro ADME, young calf; settings: bovine; 30 min; pH 6.8, 37° C., 5 units adenosine deaminase
Measured remaining at 0.5 h values are reported for all entries that follow.
Unit % implied. Number only.

Worked examples follow.
Enquiry: Which remaining at 0.5 h is reported for this compound? Nc1nc(Cl)nc2c1ncn2[C@@H]1O[C@H](COP(=O)(O)O)[C@H]1CO [Compound No. 6, 2-Chloro-oxetanocin A 4'-phosphate]
Return: 100

Enquiry: I am curious: what remaining at 0.5 h value has been reported for Nc1ncnc2c1ncn2[C@@H]1O[C@H](CO)[C@H]1CO [Oxetanocin A] ?
Return: 28

Enquiry: Sample Nc1nc(F)nc2c1ncn2[C@@H]1O[C@H](COP(=O)(O)O)[C@H]1CO [Compound No. 5, 2-Fluoro-oxetanocin A 4'-phosphate] — what was its remaining at 0.5 h?
Return: 100

Enquiry: I'd like to know its remaining at 0.5 h. The compound in question is Nc1nc(F)nc2c1ncn2[C@@H]1O[C@H](CO)[C@H]1CO [Compound No. 1, 2-Fluoro-oxetanocin A]
Return: 100

Further cases:
Enquiry: Quick one: remaining at 0.5 h for Nc1nc(Cl)nc2c1ncn2[C@@H]1O[C@H](CO)[C@H]1CO [Compound No. 2, 2-Chloro-oxetanocin A] ?
Return: 100
